What follows is a record of GI50 for KM12 colon.

Molecule: C=CCN1C(=O)/C(=c2\sc3n(c2=O)C2C(NN=3)N(CC)C(=O)N2CC)c2ccccc21 (stereo not given)
GI50: 0.439 µM
//
Molecule: O=C1NC(=NCC(CO)c2ccccc2)S/C1=C\c1ccc2ncccc2c1 (stereo not given)
GI50: 14.7 µM
//
Molecule: O=S(=O)(NCCNc1nccc(-c2c(-c3cccc(O)c3)nc3sccn23)n1)c1ccc(F)cc1
GI50: 4.36 µM
//
Molecule: CCOP(=O)(CCP(=O)(OCC)OCC)OCC.C[CH2][Sn]([Cl])([Cl])[CH2]C
GI50: > 100 µM
//
Molecule: COC1=C(OC)C(=O)C(/C=C(\C)C(=O)O)=C(C)C1=O
GI50: > 100 µM
